These data points were gathered from the OligoGym collection.

assayed_target: TMEM63B
protocol_text: reporter assay of Huesken 2005; note: test concentration or dose not given here
condition_context: siRNA
Oligonucleotides are given in HELM: sugar(base)linkage, 5' to 3'; d 2'-deoxyribose, r ribose, m 2'-O-methylribose, p phosphate. ss, as = sense and antisense strand
endpoint: normalised inhibition (eCFP-eYFP dual reporter) (%)

RNA1{r(U)p.r(C)p.r(U)p.r(G)p.r(G)p.r(G)p.r(G)p.r(A)p.r(G)p.r(A)p.r(A)p.r(C)p.r(A)p.r(G)p.r(G)p.r(A)p.r(C)p.r(A)p.r(A)p.d(T)p.d(T)}|RNA2{r(U)p.r(U)p.r(G)p.r(U)p.r(C)p.r(C)p.r(U)p.r(G)p.r(U)p.r(U)p.r(C)p.r(U)p.r(C)p.r(C)p.r(C)p.r(C)p.r(A)p.r(G)p.r(A)p.d(G)p.d(C)}$$$RNA1{StrandType:ss}|RNA2{StrandType:as}$ = 68
RNA1{r(C)p.r(C)p.r(A)p.r(U)p.r(C)p.r(C)p.r(U)p.r(C)p.r(U)p.r(G)p.r(C)p.r(C)p.r(U)p.r(C)p.r(U)p.r(U)p.r(C)p.r(U)p.r(G)p.d(T)p.d(T)}|RNA2{r(C)p.r(A)p.r(G)p.r(A)p.r(A)p.r(G)p.r(A)p.r(G)p.r(G)p.r(C)p.r(A)p.r(G)p.r(A)p.r(G)p.r(G)p.r(A)p.r(U)p.r(G)p.r(G)p.d(G)p.d(C)}$$$RNA1{StrandType:ss}|RNA2{StrandType:as}$ = 53.2
RNA1{r(C)p.r(U)p.r(C)p.r(C)p.r(U)p.r(C)p.r(U)p.r(U)p.r(C)p.r(U)p.r(U)p.r(C)p.r(C)p.r(U)p.r(C)p.r(A)p.r(C)p.r(C)p.r(A)p.d(T)p.d(T)}|RNA2{r(U)p.r(G)p.r(G)p.r(U)p.r(G)p.r(A)p.r(G)p.r(G)p.r(A)p.r(A)p.r(G)p.r(A)p.r(A)p.r(G)p.r(A)p.r(G)p.r(G)p.r(A)p.r(G)p.d(G)p.d(A)}$$$RNA1{StrandType:ss}|RNA2{StrandType:as}$ = 68

* * *

assayed_target: UBE2K
protocol_text: reporter assay of Huesken 2005
condition_context: siRNA
Oligonucleotides are given in HELM: sugar(base)linkage, 5' to 3'; d 2'-deoxyribose, r ribose, m 2'-O-methylribose, p phosphate. ss, as = sense and antisense strand
endpoint: normalised inhibition (eCFP-eYFP dual reporter) (%)

RNA1{r(A)p.r(U)p.r(G)p.r(A)p.r(C)p.r(U)p.r(C)p.r(U)p.r(C)p.r(C)p.r(G)p.r(C)p.r(A)p.r(C)p.r(G)p.r(G)p.r(U)p.r(A)p.r(U)p.d(T)p.d(T)}|RNA2{r(A)p.r(U)p.r(A)p.r(C)p.r(C)p.r(G)p.r(U)p.r(G)p.r(C)p.r(G)p.r(G)p.r(A)p.r(G)p.r(A)p.r(G)p.r(U)p.r(C)p.r(A)p.r(U)p.d(T)p.d(G)}$$$RNA1{StrandType:ss}|RNA2{StrandType:as}$ = 85.7
RNA1{r(C)p.r(C)p.r(C)p.r(G)p.r(A)p.r(A)p.r(A)p.r(U)p.r(G)p.r(U)p.r(U)p.r(C)p.r(A)p.r(A)p.r(A)p.r(C)p.r(A)p.r(G)p.r(A)p.d(T)p.d(T)}|RNA2{r(U)p.r(C)p.r(U)p.r(G)p.r(U)p.r(U)p.r(U)p.r(G)p.r(A)p.r(A)p.r(C)p.r(A)p.r(U)p.r(U)p.r(U)p.r(C)p.r(G)p.r(G)p.r(G)p.d(A)p.d(T)}$$$RNA1{StrandType:ss}|RNA2{StrandType:as}$ = 92.7
RNA1{r(A)p.r(U)p.r(U)p.r(G)p.r(U)p.r(C)p.r(A)p.r(U)p.r(U)p.r(G)p.r(C)p.r(A)p.r(A)p.r(G)p.r(C)p.r(A)p.r(C)p.r(U)p.r(A)p.d(T)p.d(T)}|RNA2{r(U)p.r(A)p.r(G)p.r(U)p.r(G)p.r(C)p.r(U)p.r(U)p.r(G)p.r(C)p.r(A)p.r(A)p.r(U)p.r(G)p.r(A)p.r(C)p.r(A)p.r(A)p.r(U)p.d(A)p.d(A)}$$$RNA1{StrandType:ss}|RNA2{StrandType:as}$ = 85.4

* * *

assayed_target: NOG
protocol_text: reporter assay of Huesken 2005
condition_context: siRNA
Oligonucleotides are written 5' to 3', each unit as a sugar letter and its base; * is a phosphorothioate linkage, no mark a phosphodiester; rarer units and linkages stand in square brackets, end groups in braces. Plain capitals give the bases only. d = 2'-deoxy (DNA); r = 2'-OH (RNA)
Measured normalised inhibition (eCFP-eYFP dual reporter) accompanies every entry in the list below.
endpoint: normalised inhibition (eCFP-eYFP dual reporter) (%)

sense rArGrCrArArGrArArGrCrUrGrCrGrGrArGrGrAdTdT / antisense rUrCrCrUrCrCrGrCrArGrCrUrUrCrUrUrGrCrUdTdA = 97.7
sense rGrArArGrCrUrGrCrGrGrArGrGrArArGrUrUrAdTdT / antisense rUrArArCrUrUrCrCrUrCrCrGrCrArGrCrUrUrCdTdT = 102
sense rCrArGrCrUrGrCrUrUrCrArGrUrArArGrCrGrCdTdT / antisense rGrCrGrCrUrUrArCrUrGrArArGrCrArGrCrUrGdCdC = 56.5
sense rArUrCrUrCrCrArCrArUrCrCrGrCrCrCrGrGrCdTdT / antisense rGrCrCrGrGrGrCrGrGrArUrGrUrGrGrArGrArUdAdG = 60.2
sense rUrCrArUrCrGrArArCrArCrCrCrArGrArCrCrCdTdT / antisense rGrGrGrUrCrUrGrGrGrUrGrUrUrCrGrArUrGrAdGdG = 67.8
sense rGrArArCrGrArCrCrUrGrGrGrCrArGrCrCrGrCdTdT / antisense rGrCrGrGrCrUrGrCrCrCrArGrGrUrCrGrUrUrCdCdA = 59.1
sense rCrCrUrGrGrUrGrGrArCrCrUrCrArUrCrGrArAdTdT / antisense rUrUrCrGrArUrGrArGrGrUrCrCrArCrCrArGrGdGdG = 81.7
sense rGrArUrGrUrGrGrCrUrGrUrGrGrUrCrGrCrArGdTdT / antisense rCrUrGrCrGrArCrCrArCrArGrCrCrArCrArUrCdTdG = 81.7
sense rGrCrCrCrGrGrCrArCrCrCrArGrCrGrArCrArAdTdT / antisense rUrUrGrUrCrGrCrUrGrGrGrUrGrCrCrGrGrGrCdGdG = 88.4
sense rArUrCrCrGrCrCrCrGrGrCrArCrCrCrArGrCrGdTdT / antisense rCrGrCrUrGrGrGrUrGrCrCrGrGrGrCrGrGrArUdGdT = 42.7
sense rGrGrCrGrGrCrCrArGrCrArCrUrArUrCrUrCrCdTdT / antisense rGrGrArGrArUrArGrUrGrCrUrGrGrCrCrGrCrCdGdG = 87.4
sense rGrUrGrCrArArGrCrCrGrUrCrCrArArGrUrCrCdTdT / antisense rGrGrArCrUrUrGrGrArCrGrGrCrUrUrGrCrArCdAdC = 75.4
sense rCrCrUrCrArUrCrGrArArCrArCrCrCrArGrArCdTdT / antisense rGrUrCrUrGrGrGrUrGrUrUrCrGrArUrGrArGrGdTdC = 79.3
sense rArUrUrCrUrGrCrCrCrCrGrUrGrCrUrGrUrArCdTdT / antisense rGrUrArCrArGrCrArCrGrGrGrGrCrArGrArArUdGdT = 51
sense rArCrArUrUrCrUrGrCrCrCrCrGrUrGrCrUrGrUdTdT / antisense rArCrArGrCrArCrGrGrGrGrCrArGrArArUrGrUdCdT = 60
sense rGrGrArArCrGrArCrCrUrGrGrGrCrArGrCrCrGdTdT / antisense rCrGrGrCrUrGrCrCrCrArGrGrUrCrGrUrUrCrCdAdC = 51.5
sense rGrArCrCrUrGrGrGrCrArGrCrCrGrCrUrUrUrUdTdT / antisense rArArArArGrCrGrGrCrUrGrCrCrCrArGrGrUrCdGdT = 77.1
sense rUrGrCrUrGrUrArCrGrCrGrUrGrGrArArCrGrAdTdT / antisense rUrCrGrUrUrCrCrArCrGrCrGrUrArCrArGrCrAdCdG = 85.2
sense rGrArCrCrCrArGrGrCrUrUrCrArUrGrGrCrCrAdTdT / antisense rUrGrGrCrCrArUrGrArArGrCrCrUrGrGrGrUrCdGdT = 82.6
sense rGrCrCrGrGrCrGrGrCrCrArGrCrArCrUrArUrCdTdT / antisense rGrArUrArGrUrGrCrUrGrGrCrCrGrCrCrGrGrCdCdG = 82.2

* * *

Documented normalised inhibition (eCFP-eYFP dual reporter) across a set of substances
assayed_target: UBE2G1
protocol_text: reporter assay of Huesken 2005
condition_context: siRNA
Oligonucleotides are written 5' to 3', each unit as a sugar letter and its base; * is a phosphorothioate linkage, no mark a phosphodiester; rarer units and linkages stand in square brackets, end groups in braces. Plain capitals give the bases only. d = 2'-deoxy (DNA); r = 2'-OH (RNA)
endpoint: normalised inhibition (eCFP-eYFP dual reporter) (%)

sense rGrArGrArArUrUrUrArArArArGrArArArArGrUdTdT / antisense rArCrUrUrUrUrCrUrUrUrUrArArArUrUrCrUrCdCdA = 56.4
sense rArGrArCrUrCrArCrCrUrGrCrUrArArUrGrUrUdTdT / antisense rArArCrArUrUrArGrCrArGrGrUrGrArGrUrCrUdCdC = 81.1
sense rArArArArGrCrCrArGrArGrGrArArCrGrCrUrGdTdT / antisense rCrArGrCrGrUrUrCrCrUrCrUrGrGrCrUrUrUrUdCdA = 32.6
sense rGrGrCrUrUrUrUrCrUrGrCrArGrGrUrUrUrArAdTdT / antisense rUrUrArArArCrCrUrGrCrArGrArArArArGrCrCdTdT = 83.3
sense rUrCrArUrGrArGrCrCrUrGrGrGrGrArArGrArUdTdT / antisense rArUrCrUrUrCrCrCrCrArGrGrCrUrCrArUrGrAdAdG = 76.4
